# SYSTEM UNDER TEST: human TOR (Homo sapiens, UniProt P42345)
# Construct: FLAG
# METHOD NOTES: mTOR enzyme assay (DELFIA, His6-S6K substrate)
# Assay type: biochemical
# EXPERIMENTAL SETUP: read-out: mTOR Kinase Avg. IC50
PROPERTY NAME: IC50 (µM)

STRUCTURE NOTATION: COc1ccc2[nH]c(-c3ccccc3)c(/C=C3\Oc4cc(O)ccc4C3=O)c2c1
SYSTEM UNDER TEST: human TOR (Homo sapiens, UniProt P42345)
IC50 [µM]: 0.092

a: COc1ccc2c(c1)c(/C=C1\Oc3cc(O)cc(O)c3C1=O)c(-c1cncnc1)n2CCN1CCN(C)CC1
b: N#Cc1ccc2[nH]cc(C=C3Oc4cc(O)cc(O)c4C3=O)c2c1
## Task Could you point out whether the larger IC50 belongs to a or to b ? Refer to your chosen item by its label in the answer.
## Result b

====

# SYSTEM UNDER TEST: PI3K-alpha (Homo sapiens)
# Sequence (P42336 whole entry, species assumed): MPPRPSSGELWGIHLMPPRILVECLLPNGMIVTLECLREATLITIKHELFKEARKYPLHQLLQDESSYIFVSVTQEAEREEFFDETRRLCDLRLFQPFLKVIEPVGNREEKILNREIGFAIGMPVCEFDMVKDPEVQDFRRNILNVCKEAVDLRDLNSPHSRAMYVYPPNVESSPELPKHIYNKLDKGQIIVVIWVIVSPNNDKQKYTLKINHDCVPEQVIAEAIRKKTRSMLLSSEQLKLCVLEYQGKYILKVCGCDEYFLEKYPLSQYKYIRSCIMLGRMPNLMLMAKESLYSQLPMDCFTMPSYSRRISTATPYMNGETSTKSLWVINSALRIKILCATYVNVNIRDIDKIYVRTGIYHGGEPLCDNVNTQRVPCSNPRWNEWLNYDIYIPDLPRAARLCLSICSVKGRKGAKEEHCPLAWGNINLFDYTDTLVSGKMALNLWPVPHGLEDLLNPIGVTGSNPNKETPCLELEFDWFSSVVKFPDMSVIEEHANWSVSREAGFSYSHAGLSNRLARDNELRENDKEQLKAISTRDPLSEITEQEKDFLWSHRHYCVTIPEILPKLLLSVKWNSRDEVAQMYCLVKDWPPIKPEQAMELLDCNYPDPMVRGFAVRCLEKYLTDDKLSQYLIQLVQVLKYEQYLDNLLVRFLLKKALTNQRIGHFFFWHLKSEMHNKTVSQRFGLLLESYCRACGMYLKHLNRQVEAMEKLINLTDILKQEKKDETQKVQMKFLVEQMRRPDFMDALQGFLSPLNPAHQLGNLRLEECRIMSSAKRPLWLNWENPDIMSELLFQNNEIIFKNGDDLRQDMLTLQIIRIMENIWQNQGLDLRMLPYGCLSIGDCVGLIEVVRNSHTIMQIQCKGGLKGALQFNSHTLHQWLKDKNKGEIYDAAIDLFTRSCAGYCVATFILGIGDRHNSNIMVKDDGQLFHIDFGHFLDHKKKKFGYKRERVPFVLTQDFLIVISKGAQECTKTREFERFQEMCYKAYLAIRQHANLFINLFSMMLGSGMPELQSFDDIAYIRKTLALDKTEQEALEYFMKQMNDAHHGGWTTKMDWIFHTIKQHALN
# Sequence (P27986 whole entry partner, species assumed): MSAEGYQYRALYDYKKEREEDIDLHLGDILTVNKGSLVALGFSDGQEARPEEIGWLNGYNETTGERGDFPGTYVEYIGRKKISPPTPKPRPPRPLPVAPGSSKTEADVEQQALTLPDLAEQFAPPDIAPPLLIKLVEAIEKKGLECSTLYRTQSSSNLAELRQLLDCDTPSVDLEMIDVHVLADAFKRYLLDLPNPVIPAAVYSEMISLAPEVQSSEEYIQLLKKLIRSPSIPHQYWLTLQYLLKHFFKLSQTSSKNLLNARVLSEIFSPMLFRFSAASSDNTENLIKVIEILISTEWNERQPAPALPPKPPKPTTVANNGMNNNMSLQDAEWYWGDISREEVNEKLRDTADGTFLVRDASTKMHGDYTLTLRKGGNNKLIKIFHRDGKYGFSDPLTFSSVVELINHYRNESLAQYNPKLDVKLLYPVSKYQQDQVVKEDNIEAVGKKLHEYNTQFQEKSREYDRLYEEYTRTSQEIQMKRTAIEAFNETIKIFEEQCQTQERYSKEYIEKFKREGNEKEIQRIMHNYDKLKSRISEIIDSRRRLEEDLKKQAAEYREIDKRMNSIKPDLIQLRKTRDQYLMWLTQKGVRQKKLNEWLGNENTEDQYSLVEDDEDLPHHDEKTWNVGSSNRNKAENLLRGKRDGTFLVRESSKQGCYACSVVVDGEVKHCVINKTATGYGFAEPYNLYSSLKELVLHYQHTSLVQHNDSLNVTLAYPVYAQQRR
# METHOD NOTES: PI3K-alpha fluorescence polarization assay
# Format: biochemical
# EXPERIMENTAL SETUP: read-out: PI3Kα Avg. IC50
pIC50: −log10 of the molar value.
PROPERTY NAME: pIC50

A: COc1ccc2[nH]cc(/C=C3\Oc4ccc(NC(=O)Nc5ccc(C(=O)N6CCN(C)CC6)cc5)cc4C3=O)c2c1 [Compound 643]
B: COc1ccc2c(c1)c(/C=C1\Oc3cc(O)ccc3C1=O)c(C)n2CCCN1CCCC1C (stereo not shown) [Example 461]
C: COc1ccc2c(c1)c(/C=C1\Oc3cc(O)c(Br)cc3C1=O)c(C)n2CCCN(C)C [Example 350]
## Task Give the ascending ranking of the items by reported pIC50. Your answer should be the labels, listed in the requested order.
## Result C, B, A
(C: 6.94, B: 7.71, A: 9.05)

I: COc1ccc2c(c1)c(/C=C1\Oc3cc(O)ccc3C1=O)c(C)n2CCCN1CCCC1 [Example 356]
II: CNC(=O)Nc1ccc2c(c1)C(=O)/C(=C/c1c(CN3CCN(C)CC3)[nH]c3ccc(OC)cc13)O2 [Compound 615]
## Task Compare reported pIC50 values for I and II . Which is lower? Refer to your chosen item by its label in the answer.
## Result I

I: COc1ccc2c(c1)c(/C=C1\Oc3c(ccc(O)c3Cl)C1=O)c(C)n2CCCN(C)C [Example 361]
II: CCn1c(C)c(/C=C2\Oc3ccc(NC(=O)Nc4ccc(S(=O)(=O)N5CCN(C)CC5)cc4)cc3C2=O)c2cc(OC)ccc21 [Compound 677]
## Task Could you point out whether the larger pIC50 belongs to I or to II ? Refer to your chosen item by its label in the answer.
## Result II

====

# SYSTEM UNDER TEST: PI3K-gamma (Homo sapiens)
# Sequence (P48736 whole entry, species assumed): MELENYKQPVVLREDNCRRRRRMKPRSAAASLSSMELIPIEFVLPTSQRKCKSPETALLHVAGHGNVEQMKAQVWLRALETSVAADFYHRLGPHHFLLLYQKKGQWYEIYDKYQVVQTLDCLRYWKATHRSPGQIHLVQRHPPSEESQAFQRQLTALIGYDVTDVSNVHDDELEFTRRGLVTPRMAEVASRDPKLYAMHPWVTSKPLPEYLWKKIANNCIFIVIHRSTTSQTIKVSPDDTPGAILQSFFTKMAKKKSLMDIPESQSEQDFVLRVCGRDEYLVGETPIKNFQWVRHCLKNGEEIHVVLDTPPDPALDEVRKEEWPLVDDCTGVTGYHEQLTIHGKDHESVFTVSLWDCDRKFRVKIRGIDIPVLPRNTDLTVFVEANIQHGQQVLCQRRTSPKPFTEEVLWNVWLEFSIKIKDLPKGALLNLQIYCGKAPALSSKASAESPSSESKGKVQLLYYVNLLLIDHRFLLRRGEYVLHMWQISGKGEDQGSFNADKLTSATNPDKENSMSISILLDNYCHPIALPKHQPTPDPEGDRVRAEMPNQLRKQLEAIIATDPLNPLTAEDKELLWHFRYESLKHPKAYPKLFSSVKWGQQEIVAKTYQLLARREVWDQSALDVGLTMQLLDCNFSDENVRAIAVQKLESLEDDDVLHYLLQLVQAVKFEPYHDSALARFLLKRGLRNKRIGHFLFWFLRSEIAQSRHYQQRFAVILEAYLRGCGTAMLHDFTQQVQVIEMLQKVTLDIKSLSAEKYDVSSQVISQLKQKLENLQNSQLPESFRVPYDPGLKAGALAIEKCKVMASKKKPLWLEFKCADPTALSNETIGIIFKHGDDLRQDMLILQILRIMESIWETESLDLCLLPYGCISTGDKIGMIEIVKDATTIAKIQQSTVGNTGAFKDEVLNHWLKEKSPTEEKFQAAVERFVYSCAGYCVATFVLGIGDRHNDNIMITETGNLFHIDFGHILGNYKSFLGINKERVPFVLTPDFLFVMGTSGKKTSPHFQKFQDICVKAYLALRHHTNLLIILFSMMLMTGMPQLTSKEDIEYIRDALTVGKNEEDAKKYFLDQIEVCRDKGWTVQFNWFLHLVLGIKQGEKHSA
# METHOD NOTES: PI3K-gamma fluorescence polarization assay
# Type: biochemical
# EXPERIMENTAL SETUP: PI3Kγ Avg. IC50
pIC50: −log10 of the molar value.
PROPERTY NAME: pIC50

STRUCTURE NOTATION: Cn1cc(/C=C2\Oc3cc(O)cc(O)c3C2=O)c2c(-c3ccccc3)cccc21
pIC50: 5.60

A: COc1ccc2c(c1)c(/C=C1\Oc3cc(O)ccc3C1=O)c(C)n2CCCN1CCCCCC1
B: COc1ccc2c(c1)c(/C=C1\Oc3cc(O)cc(O)c3C1=O)c(C1CC1)n2CCn1ccnc1
C: Cn1cc(/C=C2\Oc3cc(O)cc(O)c3C2=O)c2ccccc21
D: Cn1cc(/C=C2\Oc3cc(O)cc(O)c3C2=O)c2c(-c3cccc(O)c3)cccc21
## Task Could you please sort these 4 entries by pIC50 from high to low? Your answer should be the labels, listed in the requested order.
## Result B, A, D, C
(B: 8.66, A: 6.62, D: 5.69, C: 5.16)

Origin of the recorded values: patent US20090311217A1
